details: in acetone, 308.15 K
OBSERVATION TYPE: solubility (mole fraction)

entry_smiles=CNC(=O)c1cc(Oc2ccc(N)cc2)ccn1 numeric_result=0.0766

###

conditions: in ethyl acetate, 308.15 K
OBSERVATION TYPE: solubility (mole fraction)

entry_smiles=CNC(=O)c1cc(Oc2ccc(N)cc2)ccn1 observation_type="solubility (mole fraction)" numeric_result=0.154

###

conditions: in acetonitrile, 298.15 K
OBSERVATION TYPE: solubility (mole fraction)

entry_smiles=CNC(=O)c1cc(Oc2ccc(N)cc2)ccn1 numeric_result=0.0601

###

settings: in acetone, 288.15 K
OBSERVATION TYPE: solubility (mole fraction)

entry_smiles=CNC(=O)c1cc(Oc2ccc(N)cc2)ccn1 observation_type="solubility (mole fraction)" numeric_result=0.0514

###

conditions: in dichloromethane, 308.15 K
OBSERVATION TYPE: solubility (mole fraction)

entry_smiles=CNC(=O)c1cc(Oc2ccc(N)cc2)ccn1 observation_type="solubility (mole fraction)" numeric_result=0.0549

###

conditions: in water, 283.15 K
OBSERVATION TYPE: solubility (mole fraction)

entry_smiles=CNC(=O)c1cc(Oc2ccc(N)cc2)ccn1 numeric_result=0.00035

###

settings: in ethyl acetate, 303.15 K
OBSERVATION TYPE: solubility (mole fraction)

entry_smiles=CNC(=O)c1cc(Oc2ccc(N)cc2)ccn1 result=0.131

###

settings: in methanol, 293.15 K
OBSERVATION TYPE: solubility (mole fraction)

entry_smiles=CNC(=O)c1cc(Oc2ccc(N)cc2)ccn1 observation_type="solubility (mole fraction)" numeric_result=0.0212

###

conditions: in n-propanol, 308.15 K
OBSERVATION TYPE: solubility (mole fraction)

entry_smiles=CNC(=O)c1cc(Oc2ccc(N)cc2)ccn1 observation_type="solubility (mole fraction)" numeric_result=0.0241

###

conditions: in THF, 308.15 K
OBSERVATION TYPE: solubility (mole fraction)

entry_smiles=CNC(=O)c1cc(Oc2ccc(N)cc2)ccn1 numeric_result=0.159

###

details: in n-propanol, 283.15 K
OBSERVATION TYPE: solubility (mole fraction)

entry_smiles=CNC(=O)c1cc(Oc2ccc(N)cc2)ccn1 numeric_result=0.00674

###

conditions: in methanol, 298.15 K
OBSERVATION TYPE: solubility (mole fraction)

entry_smiles=CNC(=O)c1cc(Oc2ccc(N)cc2)ccn1 numeric_result=0.0285

###

conditions: in acetonitrile, 278.15 K
OBSERVATION TYPE: solubility (mole fraction)

entry_smiles=CNC(=O)c1cc(Oc2ccc(N)cc2)ccn1 numeric_result=0.0286

###

conditions: in methanol, 323.15 K
OBSERVATION TYPE: solubility (mole fraction)

entry_smiles=CNC(=O)c1cc(Oc2ccc(N)cc2)ccn1 observation_type="solubility (mole fraction)" numeric_result=0.106

###

conditions: in n-butanol, 298.15 K
OBSERVATION TYPE: solubility (mole fraction)

entry_smiles=CNC(=O)c1cc(Oc2ccc(N)cc2)ccn1 numeric_result=0.0101

###

settings: in dichloromethane, 323.15 K
OBSERVATION TYPE: solubility (mole fraction)

entry_smiles=CNC(=O)c1cc(Oc2ccc(N)cc2)ccn1 observation_type="solubility (mole fraction)" result=0.123

###

conditions: in acetone, 278.15 K
OBSERVATION TYPE: solubility (mole fraction)

entry_smiles=CNC(=O)c1cc(Oc2ccc(N)cc2)ccn1 numeric_result=0.046

All figures here come from BigSolDB 2.1.
